// reported inhibition per item
Molecular target: L-lactate dehydrogenase (Plasmodium falciparum (isolate CDC / Honduras))
Assay: PfLDH activity inhibition – cell lysate, 3D7 strain, counter-screen for P. falciparum growth inhibition project (AID 2304);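 note: 0% = vehicle and 100% = reference inhibitor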
Settings: P. falciparum 3D7 crude extract, LDH APAD/NBT absorbance; at 2 µM; stronger effect = higher value
Experimental Endpoint: inhibition (%)

- O=C(NCCc1ccccc1)N(Cc1ccc(-c2cccc(CN3CCNCC3)c2)cc1)C1CCN(Cc2ccccc2)CC1: -1
- CC1(C)N=C(N)N=C(N)N1OCCSCc1cc(Cl)sc1Cl: -2
- Cc1ccc(NC(=O)c2ccc3ncccc3c2)cc1OC1CCN(C(C)C)C1 (stereo unspecified): 1
- O=C(NC(Cc1ccccc1)C(=O)O)c1cc(=O)c2ccccc2o1 (stereo unspecified): -6
- CC(C)c1ccc(S(=O)(=O)N(c2ccc3c(c2)OCO3)C2CCN(Cc3ccccc3)C2)cc1 (stereo unspecified): 0
- CCNc1cc(C)nc(Nc2ccc(F)cc2)n1: -7
- CCN(CC)CCNC(=O)c1ccc(NC(=O)c2cc3c(C)nn(-c4ccc(Cl)cc4)c3s2)cc1: -2
- Fc1ccc(CNc2ncc(-c3ccsc3)c(-c3nccs3)n2)cc1: -2
- COc1ccc(-c2cnc(N)c(-c3nc4ccc(Br)cc4[nH]3)c2)cc1: 2
- Fc1ccc2nc(-c3ccc(-c4ccc(CN5CCCCC5)cc4)cc3)[nH]c2c1: -3
- COc1ccc(-c2nc(NC(=O)CS(=O)(=O)c3ccccc3)sc2C)cc1: -9
- Cc1ccc(OCC2CCN(c3ncc(C(=O)NC4CC4)cc3Cl)CC2)cc1: 0
- COc1ccc2nc(C)cc(NCc3cccc4ccccc34)c2c1: -7
- Cc1cc(Nc2cc(Cl)cc(Cl)c2)nc(N)n1: 3
- CC(C(=O)NC1CCN(c2ccnc(Nc3ccc(F)cc3)n2)C1)c1ccc(Cl)cc1 (stereo unspecified): -4
- Cc1cc(Nc2ccc(C)c(C)c2)n2nc(C)nc2n1: -5
- CCc1cn(C)c2c(N3CCCC3=O)cc(C(=O)N[C@@H](Cc3ccccc3)[C@H](O)CNC(C)(C)c3cccc(C(F)(F)F)c3)cc12: 0
- O=C(Nc1cccc2ccccc12)N1CCC(NS(=O)(=O)c2cccc(C(F)(F)F)c2)CC1: -1
- CCOc1ccc(C2CCN(CCCCNC(=O)c3ccc(NC(=O)c4ccc(Cl)cc4)cc3)CC2)c(Cl)c1: -2
- O=C(Nc1ccc(OC2CCN(Cc3ccc(F)cc3)C2)c(Cl)c1)c1ccsc1 (stereo unspecified): -3
- CCOc1ccc(C(=O)Nc2nonc2-c2ccc(OC)c(OC)c2)cc1: 5

###

// reported growth inhibition per item
Experiment: inhibition of 3D7 malaria parasite growth – strain 3D7 (AID 2306);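 note: 0% = DMSO wells and 100% = chloroquine plus artemisinin control wells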
Conditions: P. falciparum 3D7 erythrocytic growth, LDH absorbance, 72 h; at 2 µM; stronger effect = higher value
Active and inactive are the calls of the source. The rule behind the calls is not given here.
Experimental Endpoint: growth inhibition

- COc1ccc2nccc([C@@H](O)CN3CCC(NC(=O)C(c4cc5ccccc5s4)N4CC(C)OC(C)C4)CC3)c2c1 (some centres not stated): 93% (active)
- CCN(CC)CCOC(=O)c1ccc(NC(=O)c2cn(-c3ccccc3)nc2-c2cccs2)cc1: 100% (active)
- CN(C)CCCNc1nccc(N(C)c2ccc(NC(=O)Nc3cc(C(F)(F)F)ccc3F)cc2)n1: 93% (active)
- Cc1cc(NN=Cc2ccccc2Cl)c2cc(C(F)(F)F)ccc2n1: 100% (active)
- O=C(Nc1ccc(C(=O)OCC(c2ccccc2)c2ccccc2)cc1)N[C@@H](Cc1ccc(O)cc1)C(=O)NC1CCN(Cc2ccc(O)cc2)C1 (some centres not stated): 96% (active)
- CCOC(=O)c1ccc(NC(=O)Nc2ccc(-c3cccc(-c4nc5c(C)cccc5[nH]4)c3)cc2)cc1: 101% (active)
- O=C(C=Cc1cccs1)N(CCCn1ccnc1)c1nc2ccc(F)cc2s1: 98% (active)
- Cc1c(Cn2ncc(N3C[C@@H](C)N[C@@H](C)C3)c(Cl)c2=O)cccc1NC(=O)Nc1ccc(-c2ccccc2)cc1: 97% (active)
- O=C(/C=C/c1ccc(Cl)c(Cl)c1)NCCCCCCN1CCCN(C(=O)Nc2ccc(Cl)c(C(F)(F)F)c2)CC1: 101% (active)
- CN1CCC(Oc2ccc(NC(=O)c3ccc4c(=O)n(Cc5ccccc5)cnc4c3)cc2Cl)CC1: 95% (active)
- CN(C)Cc1cccc(-c2ccc(NC(=O)c3ccc4c(=O)n(CCN5CCCCC5)cnc4c3)cc2)c1: 101% (active)
- CCN(CCCN1CCCCC1)c1cc(C)nc(Nc2ccc(C)cc2Cl)n1: 93% (active)
- Cc1ccc(C)c(-n2c(SCC(=O)Nc3ccc(C(N)=O)cc3)nnc2-c2cccc(Cl)c2)c1: 92% (active)
- CC(=O)NC1=NC(C)(C)N(OCCCOc2ccc(Cl)c(Cl)c2)C(NC(C)=O)=N1: 96% (active)
- CCOc1ccc(/C=C/C(=O)Nc2cccc3c2CCN(C)C3)cc1: 92% (active)
- Cc1ccc(Cn2cnc3cc(C(=O)Nc4ccc(-c5ccc(CN(C)C)cc5)cc4)ccc3c2=O)o1: 82% (active)
- COc1ccc(CNCc2cccc(-c3cccc(-c4nc5ccc(C(F)(F)F)cc5[nH]4)c3)c2)cc1: 100% (active)
- O=C(Nc1cccc(-c2nn3ccccc3c2-c2ccnc(Nc3ccccc3)n2)c1)c1c(F)cccc1F: 98% (active)
- CC(C)c1ccc(NC(=O)c2ccc(C(=O)NC3CCN(Cc4ccsc4)C3)cc2)cc1 (configuration not stated): 82% (active)
- Cc1cc(C(=O)N[C@H]2CCN(Cc3ccc(OCCCN(C)C)cc3)C2)ccc1Br: 97% (active)
- Cc1[nH]c(C)c(-c2ccc(-c3ccc(Cl)cc3)nc2)c(=O)c1Br: 97% (active)
- CCCCc1cc(NCC)nc(Nc2ccc(F)cc2)n1: 98% (active)
- Cc1ccc(C)c2sc(N(CCCn3ccnc3)C(=O)c3ccco3)nc12: 96% (active)
- Cc1nc(C(=O)N2CCCC[C@H]2CNC(=O)c2ccc(-c3ccc(N4CCCC4=O)cc3C)cc2)c(-c2ccc(F)cc2)s1: 98% (active)
- CN1CCC(C(=O)Nc2ccc(-c3ccc(-c4nc5ccc(C(F)(F)F)cc5[nH]4)s3)cc2)CC1: 101% (active)
- CCCCSc1nc2c(c(=O)n1Cc1ccco1)C1(CCCCC1)Cc1ccccc1-2: 96% (active)
- O=C(NCc1ccc(F)cc1)Nc1cccc(-c2ccc(-c3nc4ccc(F)cc4[nH]3)cc2)c1: 101% (active)
- Cc1ccc2nc(N(CCCn3ccnc3)C(=O)C=Cc3cccs3)sc2c1: 100% (active)
- COc1ccc2nccc([C@@H](O)CN3CCC(NCc4cc5cccc(O)c5[nH]4)CC3)c2c1: 101% (active)
- CCCC(C)Nc1nc(C)cc(N[C@@H](Cc2ccccc2)C(=O)NCc2cccc(F)c2)n1 (some centres not stated): 100% (active)
- CO/C(=C\C=C\c1cc2cc(Cl)c(Cl)cc2[nH]1)C(=O)NC1C[C@H]2CCC[C@@H](C1)N2C (some centres not stated): 93% (active)
- Cc1cccc2[nH]c(-c3cccc(-c4ccc(NC(=O)Nc5cccc(C#N)c5)cc4)c3)nc12: 101% (active)
- Clc1ccc(OCc2ccccc2)c(-c2nc(-c3nc4ncc(Br)cc4[nH]3)cs2)c1: 101% (active)
- O=C(Nc1ccc2c(c1)CCCN2S(=O)(=O)c1cccs1)c1cc([N+](=O)[O-])ccc1Cl: 93% (active)
- CC(C)c1ccc(NC(=O)NCCCC2CCCN(CCCCCNC(=O)/C=C/c3ccc(Cl)c(Cl)c3)C2)cc1 (configuration not stated): 90% (active)
- CN(C)Cc1cccc(-c2cnc(N)c(-c3nc4ccc(S(C)(=O)=O)cc4[nH]3)c2)c1: 100% (active)
- Nc1nc(N)c2c(ccc3nccc32)[nH]1: 88% (active)

###

Assay: human hepatoma cell viability loss – ATP luminescence, cytotoxicity control for P. falciparum antimalarial project, primary screen (AID 2303);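 note: 0% = DMSO wells and 100% = digitonin-killed cells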
Details: HepG2 viability, 24-48 h, at 10 µM, stronger effect = higher value
// reported inhibition per item
Experimental Endpoint: inhibition (%)

* c1cc(Nc2nccc(-c3cnn4ncccc34)n2)cc(-c2cnco2)c1 | 54
* Cc1[nH]c(C)c(-c2cc3ccccc3o2)c(=O)c1Cl | 1
* CCCCC1(c2ccc(F)cc2)NC(=O)N(CC(=O)c2cc(C)n(Cc3ccco3)c2C)C1=O (centres undefined) | 6
* Cc1ccc(C(=O)Nc2cc(C(F)(F)F)cc(C(F)(F)F)c2)cc1[N+](=O)[O-] | 17
* Cc1cccc2[nH]c(-c3ccc(-c4ccc(CN5CCN(C6CCN(C)CC6)CC5)cc4)cc3)nc12 | 99
* CC(Cc1ccc(OCCN2CCN(c3ccc(Cl)cc3)CC2)cc1)NCC(O)c1cccc(C(F)(F)F)c1 (centres undefined) | 97
* CCOc1cc(NCCSCc2nc[nH]c2C)nc2ccccc12 | 4
* O=C(NCc1cc2c(cc1Cl)OCO2)c1ccc(CNC2CCN(Cc3ccccc3)CC2)cc1 | 11
* CCOc1c(Br)cc(C)cc1CNCCCNc1nc2ccccc2[nH]1 | 24
* CCCC(C)Nc1nc(C)cc(N[C@@H](CC(C)C)C(=O)NC2CCCC2)n1 (some centres undefined) | 6
* CN(C)C(=O)n1cnc(S(=O)(=O)N(C)c2ccc(Cl)cc2)n1 | 7
* Fc1ccc2nc(-c3cccc(-c4ccc(CNCCN5CCNCC5)cc4)c3)[nH]c2c1 | 9
* CCCC1(NC[C@@H](O)[C@H](Cc2ccccc2)NC(=O)c2cc(NCC)cc(N3CCCCS3(=O)=O)c2)CC1 | 1
* COc1ccc2nccc([C@@H](O)CN3CCC(NCc4cn5cc(F)ccc5n4)CC3)c2c1 | 19
* CC(C)C[C@@H](NC(=O)OC(C)(C)C)C(=O)Nc1ccc(Cc2ccc(NC(=O)[C@@H](CC(C)C)NC(=O)OC(C)(C)C)cc2)cc1 | 8
* CC(C)CCC[C@@H]([C@@H](CC1CCCCC1)C(=O)N[C@@H](CCCCNC(=O)OCc1ccccc1)C(=O)Nc1nccs1)N(O)C=O | -4
* CCN(CCCN1CCCCC1)c1nc(C)cc(Nc2ccc(Cl)cc2)n1 | 30
* Cc1ccc(F)cc1S(=O)(=O)N1CCCCC(c2ccc(C(F)(F)F)cc2)=N1 | 8
* COC(=O)c1ccc(CCC(C)NCC(O)c2cccc(C(F)(F)F)c2)cc1 (centres undefined) | 16
